settings: 353.15 K; 96.7 kPa; Liquid; Capillary tube (Ostwald / Ubbelohde) method
ENDPOINT: log10(viscosity) (log10 of the value in mPa·s)
Note the log scale: values are log10 of viscosity expressed in mPa·s.

Consider the reported log10(viscosity) for these compounds:
INSERT INTO results (compound, endpoint, recorded_value) VALUES
  ('c1ccncc1', 'log10(viscosity)', -0.31),
  ('CC(=O)N(C)C [N,N-dimethylethanamide]', 'log10(viscosity)', -0.29),
  ('CCCCCCn1cc[n+](C)c1.[Cl-] [1-hexyl-3-methylimidazolium chloride]', 'log10(viscosity)', 2.15),
  ('C[S+](C)[O-] [dimethyl sulfoxide]', 'log10(viscosity)', -0.06);

Let us examine a further case.
Lookup result for CN(C)C=O [dimethylformamide] ; measured log10(viscosity): -0.33
